Target: C-X-C chemokine receptor type 3 (Homo sapiens, UniProt P49682)
Sequence (P49682 whole entry): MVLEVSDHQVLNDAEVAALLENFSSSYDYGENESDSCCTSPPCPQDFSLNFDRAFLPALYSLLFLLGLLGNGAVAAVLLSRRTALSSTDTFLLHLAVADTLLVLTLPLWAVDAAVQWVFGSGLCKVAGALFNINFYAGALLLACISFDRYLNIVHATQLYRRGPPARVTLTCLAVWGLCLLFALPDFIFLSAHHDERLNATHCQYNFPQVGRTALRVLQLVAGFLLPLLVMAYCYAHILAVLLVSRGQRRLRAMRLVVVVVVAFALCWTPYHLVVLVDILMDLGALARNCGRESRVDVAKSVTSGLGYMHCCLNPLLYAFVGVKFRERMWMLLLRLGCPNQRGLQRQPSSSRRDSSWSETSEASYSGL
Experiment: Antagonist activity at CXCR3 receptor (unknown origin) by [35S]GTPgammaS binding assay
pIC50: −log10 of the molar value.
measurement.kind: pIC50

The compound COc1cccc2c1c(NS(=O)(=O)c1ccc(Cl)s1)nn2Cc1cccc(CNC(=O)C(C)(C)O)c1 showed pIC50 equal to < 5.00

====

Experiment: Plasma protein binding in Beagle dog by equilibrium dialysis technique
Format: ADME, cell-free, Canis lupus familiaris
Details: read-out: PPB
measurement.kind: fraction unbound

The compound COc1cccc2c1c(NS(=O)(=O)c1ccc(Cl)s1)nn2Cc1cccc(CNC(=O)C(C)(C)O)c1 showed fraction unbound equal to ≤ 0.01
